Source: ChEMBL document CHEMBL4513216

- Tested on: Plasmodium berghei
- assay name: Screen against P. berghei liver stage (PbLuc), transformed with Luciferase, at 2uM
- Type: functional, HepG2
- measurement setup: tested at 2 uM
Hit rate of the full screen: of about 68,000 compounds, about 2,700 (4%) showed an effect of 50% or more. For the sample, strong results were picked, then their nearest neighbours and some compounds at random.
Each entry falls in a class defined on INHIBITION; the bands are low-valued = under -20%, mid-valued = from -20% up to 30%, high-valued = 30% and over

- molecule: "CC1CCN(c2nc3cn(Cc4cccc(F)c4)c(=O)c-3c[nH]2)CC1"
  tested target: "Plasmodium berghei"
  discrete label: "mid-valued"
- molecule: "Cc1ccc(CNCC2Cn3nnc(-c4cccc(F)c4)c3CO2)o1 (stereo not given)"
  tested target: "Plasmodium berghei"
  discrete label: "mid-valued"
- molecule: "Cc1noc(C)c1C(=O)N1CC[C@H]2C[C@@H](c3ccncn3)O[C@@H]2C1"
  tested target: "Plasmodium berghei"
  discrete label: "mid-valued"
- molecule: "Cc1oncc1C(=O)N1CC[C@H]2C[C@H](c3ccncn3)O[C@@H]2C1"
  tested target: "Plasmodium berghei"
  discrete label: "high-valued"
- molecule: "CC(C)(C)n1nnnc1CN(Cc1ccccc1)Cc1ccc(Cl)cc1"
  tested target: "Plasmodium berghei"
  discrete label: "mid-valued"
- molecule: "CCC(O)CN1CCN(C(=O)c2ccn(-c3cccc(F)c3)n2)CC1 (stereo not given)"
  tested target: "Plasmodium berghei"
  discrete label: "high-valued"
- molecule: "CC1CCCCN1CCNC(=O)c1ccn(-c2cccc(F)c2)n1 (stereo not given)"
  tested target: "Plasmodium berghei"
  discrete label: "mid-valued"
- molecule: "O=C(c1cccc(F)c1)N1CC[C@H]2[C@H]1CCN2CC1CCOCC1"
  tested target: "Plasmodium berghei"
  discrete label: "mid-valued"
- molecule: "CC(C)c1nnc2n1CCN(Cc1ncc(-c3ccccc3)o1)C2"
  tested target: "Plasmodium berghei"
  discrete label: "low-valued"
- molecule: "CCN1CCC12CCN(C(=O)c1ccsc1)C2 (stereo not given)"
  tested target: "Plasmodium berghei"
  discrete label: "mid-valued"
- molecule: "CC(C)(O)CN1CCN(C(=O)c2ccn(-c3cccc(F)c3)n2)CC1"
  tested target: "Plasmodium berghei"
  discrete label: "high-valued"
- molecule: "C[C@@H]1CN(C2CCN(c3ccccc3F)CC2)C[C@]1(C)O"
  tested target: "Plasmodium berghei"
  discrete label: "high-valued"
- molecule: "CN1CCCN(C(=O)c2cnc(Cc3c(Cl)cccc3Cl)nc2O)CC1"
  tested target: "Plasmodium berghei"
  discrete label: "low-valued"
- molecule: "CCCc1nc2c(c(C)c(C)n2Cc2ccccn2)c(N)c1CC"
  tested target: "Plasmodium berghei"
  discrete label: "mid-valued"
- molecule: "CC(O)CN1CCN(C(=O)c2ccn(-c3cccc(Cl)c3)n2)CC1 (stereo not given)"
  tested target: "Plasmodium berghei"
  discrete label: "low-valued"
- molecule: "NS(=O)(=O)Cc1ccc(CNC(=O)NCC2CCOC2)cc1 (stereo not given)"
  tested target: "Plasmodium berghei"
  discrete label: "low-valued"
- molecule: "Cc1[nH]nc(CCC(=O)N2CCOC(CCc3ccccc3)C2)c1C (stereo not given)"
  tested target: "Plasmodium berghei"
  discrete label: "mid-valued"
- molecule: "COc1cc(CNC(=O)Nc2nnc(C(F)(F)F)s2)ccc1O"
  tested target: "Plasmodium berghei"
  discrete label: "high-valued"
- molecule: "COc1cc(CNC(=O)Nc2nnc(C3CC3)s2)ccc1O"
  tested target: "Plasmodium berghei"
  discrete label: "high-valued"

----------
- Tested on: Plasmodium berghei
- assay name: Screen against P. berghei liver stage (PbLuc), transformed with Luciferase, at 2uM
- Type: functional, HepG2
- measurement setup: tested at 2 uM
Out of some 68,000 compounds screened, about 2,700 (4%) showed an effect of 50% or more. This excerpt belongs to a sample that is enriched for strong results.
Recorded INHIBITION by entry

- molecule: "CC(NCc1ccncc1)c1cc(F)ccc1N1CCN(C)CC1 (stereo unspecified)"
  tested target: "Plasmodium berghei"
  value unit: "%"
  INHIBITION: 24.88
- molecule: "c1csc(CN2CCC3(CCOCC3COCC3CC3)CC2)n1 (stereo unspecified)"
  tested target: "Plasmodium berghei"
  value unit: "%"
  INHIBITION: -23.51
- molecule: "Cc1cc(NC(=O)C(C#N)Cc2cnn(C)c2C)no1 (stereo unspecified)"
  tested target: "Plasmodium berghei"
  value unit: "%"
  INHIBITION: -11.32
- molecule: "O=C1CC2(CCN(Cc3ccncc3)C2)CN1c1cccc(F)c1 (stereo unspecified)"
  tested target: "Plasmodium berghei"
  value unit: "%"
  INHIBITION: 54.62
- molecule: "CCn1ccnc1CN1CCN(CC(=O)NC(C2CC2)C2CC2)CC1"
  tested target: "Plasmodium berghei"
  value unit: "%"
  INHIBITION: 29.19
- molecule: "COc1c(CNC(c2ccccc2)c2ccc(F)cc2)c(C)nn1C (stereo unspecified)"
  tested target: "Plasmodium berghei"
  value unit: "%"
  INHIBITION: 13.67
- molecule: "CN1CCC2(CC1)CN(C(=O)c1cccc3cccnc13)CCN2C"
  tested target: "Plasmodium berghei"
  value unit: "%"
  INHIBITION: 9.11
- molecule: "Cc1cc(CN2CCN(c3ccc4nncn4n3)C(C)C2)no1 (stereo unspecified)"
  tested target: "Plasmodium berghei"
  value unit: "%"
  INHIBITION: -54.33
- molecule: "Cc1ncc(CN2CCN(c3ccc4nncn4n3)C(C)C2)s1 (stereo unspecified)"
  tested target: "Plasmodium berghei"
  value unit: "%"
  INHIBITION: 64.71
- molecule: "Cc1cccnc1CN1CCN(C(=O)CCn2ccc(=O)[nH]c2=O)CC1"
  tested target: "Plasmodium berghei"
  value unit: "%"
  INHIBITION: 35.88
- molecule: "c1cc(CN2CCC3(CC2)COC(COCC2CC2)C3)co1 (stereo unspecified)"
  tested target: "Plasmodium berghei"
  value unit: "%"
  INHIBITION: 15.02
- molecule: "CCc1nn(C)c2[nH]nc(NC(=O)c3cccnc3NC(C)C)c12"
  tested target: "Plasmodium berghei"
  value unit: "%"
  INHIBITION: 54.87
- molecule: "CC1CN(Cc2cccnc2)CCN1c1ccc2nncn2n1 (stereo unspecified)"
  tested target: "Plasmodium berghei"
  value unit: "%"
  INHIBITION: -68.26
- molecule: "CCNC(=O)N(C)C(c1cccnc1)C(C)C (stereo unspecified)"
  tested target: "Plasmodium berghei"
  value unit: "%"
  INHIBITION: 42.2
- molecule: "CC(C)C(c1cccnc1)N(C)C(=O)Cc1c(F)cccc1F (stereo unspecified)"
  tested target: "Plasmodium berghei"
  value unit: "%"
  INHIBITION: 54.29
- molecule: "CCc1nn(C)c2[nH]nc(NC(=O)c3cccnc3OC)c12"
  tested target: "Plasmodium berghei"
  value unit: "%"
  INHIBITION: -3.4

----------
- Tested on: Plasmodium berghei
- assay name: Screen against P. berghei liver stage (PbLuc), transformed with Luciferase, at 2uM
- Type: functional, HepG2
- measurement setup: tested at 2 uM
The campaign covered roughly 68,000 compounds. About 2,700 (4%) showed an effect of 50% or more. The entries come from a sample that favours strong results as a whole.
Quick rule for you: INHIBITION under 20% gets True, anything else gets False.

- molecule: "CSC1(CNc2ccc(Br)cn2)CCOCC1"
  discrete label: "False"
- molecule: "COc1ccc(CN2CCOC(CCc3ccnc(N)c3)C2)cc1 (stereo not given)"
  discrete label: "True"
- molecule: "CN(Cc1nccn1CC(F)(F)F)C(=O)c1ccc(F)c(F)c1"
  discrete label: "False"
- molecule: "O=C(CCc1ccccc1)C1CCCN(Cc2cncn2C2CC2)C1 (stereo not given)"
  discrete label: "False"
- molecule: "Cc1ccc(CN2CC[C@H]3CO[C@H](CN4CCCC4)[C@H]3C2)o1"
  discrete label: "False"

----------
- Test system: Plasmodium berghei
- assay name: Screen against P. berghei liver stage (PbLuc), transformed with Luciferase, at 2uM
- Format: functional, HepG2
- measurement setup: tested at 2 uM
Screen size: about 68,000 compounds; about 2,700 (4%) showed an effect of 50% or more. The sample holds strong results, similar compounds and a random draw of the others, so the mix is not that of the screen.

- compound: "Cc1ccc(CN2CCC3(CCCN3S(C)(=O)=O)CC2)s1"
  INHIBITION: "-26.46%"
- compound: "CN(C)CCCN(CCC#N)C(=O)Nc1ccc2[nH]ccc2c1"
  INHIBITION: "-28.09%"
- compound: "Cc1nc(N2CCCC2)nc2c1CCN(C(=O)CC1CCCC1)CC2"
  INHIBITION: "1.33%"
- compound: "CN(Cc1nnc2n1CCC2)C(=O)Cc1ccc2c(c1)CCC2"
  INHIBITION: "-9.49%"
- compound: "CCN(Cc1ccc2c(c1)OCCO2)S(=O)(=O)N(C)C(C)C"
  INHIBITION: "63.95%"
- compound: "COC(=O)CNC(=O)c1scnc1C"
  INHIBITION: "-7.24%"
- compound: "Cc1cc(N2CCOC(C(F)(F)F)C2)nc(-c2ccccc2O)n1 (stereo unspecified)"
  INHIBITION: "-43.28%"
- compound: "COCC1CN(Cc2ccc(C)o2)Cc2nnn(C)c21 (stereo unspecified)"
  INHIBITION: "38.83%"
- compound: "O=C(C1CC(c2ccccc2)=NO1)N1CCCCc2ccccc21 (stereo unspecified)"
  INHIBITION: "24.84%"
- compound: "CN(C)c1cc(CNC(=O)c2cc(Cl)ccn2)ccn1"
  INHIBITION: "49.01%"
- compound: "Cc1cnn(CC2CCCN2C(=O)CCc2ccc3c(c2)OCO3)c1 (stereo unspecified)"
  INHIBITION: "-26.45%"
- compound: "Cc1ccc(CN2CCCC3(CCCCN3S(C)(=O)=O)C2)s1 (stereo unspecified)"
  INHIBITION: "-40.37%"
- compound: "Cc1nnc(SCC(=O)c2cc3c(cc2Cl)NC(=O)C3)o1"
  INHIBITION: "54.73%"
- compound: "Cn1nc(C2CCCN(Cc3cccc(F)c3)C2)c2nccnc21 (stereo unspecified)"
  INHIBITION: "-13.37%"
- compound: "CS(=O)(=O)NC[C@]12COC[C@H]1CN(Cc1ccc3c(c1)OCO3)C2"
  INHIBITION: "-6.8%"
- compound: "Cc1cc(N2Cc3cnn(CCO)c3C2)nc(-c2ccccc2)n1"
  INHIBITION: "67.53%"
